Where do the numbers come from? From ChEMBL document CHEMBL1146122.

assay: Selectivity for human NPY4 over rat-human hybrid NPY5 receptor
Non-standard residues stand in square brackets, D forms with d. Residues, ends and D or L forms follow the SMILES beside them. Nva = CCC[C@H](N)C(=O)O
Below: a set of entries, each annotated with reported Selectivity ratio.
Answer with the value's number alone.

Below, each entry is followed by its recorded Selectivity ratio result.
Compound	Selectivity ratio
CCC[C@H](NC(=O)[C@H](CCCN=C(N)N)NC(=O)[C@H](Cc1c[nH]c2ccccc12)NC(=O)[C@@H](N)CC[C@H](N)C(=O)N[C@@H](Cc1c[nH]c2ccccc12)C(=O)N[C@@H](CCCN=C(N)N)C(=O)N[C@@H](CCC)C(=O)N[C@@H](CCCN=C(N)N)C(=O)N[C@@H](Cc1ccc(O)cc1)C(N)=O)C(=O)N[C@@H](CCCN=C(N)N)C(=O)N[C@@H](Cc1ccc(O)cc1)C(N)=O	78
CCC[C@H](NC(=O)[C@H](CCCN=C(N)N)NC(=O)[C@H](Cc1c[nH]c2ccccc12)NC(=O)[C@H](Cc1ccc(O)cc1)NC(=O)[C@H](CCCN=C(N)N)NC(=O)[C@H](CCC)NC(=O)[C@H](CCCN=C(N)N)NC(=O)[C@H](Cc1c[nH]c2ccccc12)NC(=O)[C@H](Cc1ccc(O)cc1)NC(=O)[C@H](CCCN=C(N)N)NC(=O)[C@H](CCC)NC(=O)[C@H](CCCN=C(N)N)NC(=O)[C@@H](N)Cc1c[nH]c2ccccc12)C(=O)N[C@@H](CCCN=C(N)N)C(=O)N[C@@H](Cc1ccc(O)cc1)C(N)=O (H-WR[Nva]RYWR[Nva]RYWR[Nva]RY-NH2)	40

Here is the next item to consider.
Can you share its Selectivity ratio? I mean this compound: CCC[C@H](NC(=O)[C@H](CCCN=C(N)N)NC(=O)[C@H](Cc1c[nH]c2ccccc12)NC(=O)[C@H](Cc1ccc(O)cc1)NC(=O)[C@H](CCCN=C(N)N)NC(=O)[C@H](CCC)NC(=O)[C@H](CCCN=C(N)N)NC(=O)[C@@H](N)Cc1c[nH]c2ccccc12)C(=O)N[C@@H](CCCN=C(N)N)C(=O)N[C@@H](Cc1ccc(O)cc1)C(N)=O (H-WR[Nva]RYWR[Nva]RY-NH2)
50

====

experiment: Displacement of […] from rat-human hybrid NPY5 receptor expressed in CHO cells; type: cell-based
Positions of bridges follow the written chain, without caps; N, C: chain ends. Non-standard residues stand in square brackets, D forms with d. Residues, ends and D or L forms follow the SMILES beside them. Chains are numbered I, II in the order given. Nva = CCC[C@H](N)C(=O)O
Parameter: Ki (nM)
Provide the reading as a plain figure in nM.

Below, each entry is followed by its recorded Ki result.
Compound	Units text	Ki
CCC[C@H](NC(=O)[C@H](CCCN=C(N)N)NC(=O)[C@H](Cc1c[nH]c2ccccc12)NC(=O)[C@@H](N)CCC[C@H](N)C(=O)N[C@@H](Cc1c[nH]c2ccccc12)C(=O)N[C@@H](CCCN=C(N)N)C(=O)N[C@@H](CCC)C(=O)N[C@@H](CCCN=C(N)N)C(=O)N[C@@H](Cc1ccc(O)cc1)C(N)=O)C(=O)N[C@@H](CCCN=C(N)N)C(=O)N[C@@H](Cc1ccc(O)cc1)C(N)=O (stereo in doubt; 2A)	nM	2160
CCC[C@H](NC(=O)[C@H](CCCN=C(N)N)NC(=O)[C@H](Cc1c[nH]c2ccccc12)NC(=O)[C@H](Cc1ccc(O)cc1)NC(=O)[C@H](CCCN=C(N)N)NC(=O)[C@H](CCC)NC(=O)[C@H](CCCN=C(N)N)NC(=O)[C@@H](N)Cc1c[nH]c2ccccc12)C(=O)N[C@@H](CCCN=C(N)N)C(=O)N[C@@H](Cc1ccc(O)cc1)C(N)=O (H-WR[Nva]RYWR[Nva]RY-NH2)	nM	250
CCC[C@H](NC(=O)[C@H](CCCN=C(N)N)NC(=O)[C@H](Cc1c[nH]c2ccccc12)NC(=O)[C@@H](N)CCC[C@H](N)C(=O)N[C@@H](Cc1c[nH]c2ccccc12)C(=O)N[C@@H](CCCN=C(N)N)C(=O)N[C@@H](CCC)C(=O)N[C@@H](CCCN=C(N)N)C(=O)N[C@@H](Cc1ccc(O)cc1)C(N)=O)C(=O)N[C@@H](CCCN=C(N)N)C(=O)N[C@@H](Cc1ccc(O)cc1)C(N)=O (stereo in doubt; 2B)	nM	2280

Can you share its Ki? I mean this compound: CCC[C@H](NC(=O)[C@H](CCCN=C(N)N)NC(=O)[C@H](Cc1c[nH]c2ccccc12)NC(=O)[C@@H](N)CCCC[C@H](N)C(=O)N[C@@H](Cc1c[nH]c2ccccc12)C(=O)N[C@@H](CCCN=C(N)N)C(=O)N[C@@H](CCC)C(=O)N[C@@H](CCCN=C(N)N)C(=O)N[C@@H](Cc1ccc(O)cc1)C(N)=O)C(=O)N[C@@H](CCCN=C(N)N)C(=O)N[C@@H](Cc1ccc(O)cc1)C(N)=O (stereo in doubt; 4A)
120

Can you share its Ki? I mean this compound: CCC[C@H](NC(=O)[C@H](CCCN=C(N)N)NC(=O)[C@H](Cc1c[nH]c2ccccc12)NC(=O)[C@@H](N)CCCC[C@H](N)C(=O)N[C@@H](Cc1c[nH]c2ccccc12)C(=O)N[C@@H](CCCN=C(N)N)C(=O)N[C@@H](CCC)C(=O)N[C@@H](CCCN=C(N)N)C(=O)N[C@@H](Cc1ccc(O)cc1)C(N)=O)C(=O)N[C@@H](CCCN=C(N)N)C(=O)N[C@@H](Cc1ccc(O)cc1)C(N)=O (stereo in doubt; 4B)
280

Can you share its Ki? I mean this compound: CCC[C@H](NC(=O)[C@H](CCCN=C(N)N)NC(=O)[C@H](Cc1c[nH]c2ccccc12)NC(=O)[C@@H](N)CSSC[C@H](N)C(=O)N[C@@H](Cc1c[nH]c2ccccc12)C(=O)N[C@@H](CCCN=C(N)N)C(=O)N[C@@H](CCC)C(=O)N[C@@H](CCCN=C(N)N)C(=O)N[C@@H](Cc1ccc(O)cc1)C(N)=O)C(=O)N[C@@H](CCCN=C(N)N)C(=O)N[C@@H](Cc1ccc(O)cc1)C(N)=O (I: H-CWR[Nva]RY-NH2 / II: H-CWR[Nva]RY-NH2; disulfide I:1-II:1)
770

====

molecular target: Neuropeptide Y receptor type 4 (Homo sapiens, UniProt P50391); test: Agonist activity at human NPY4 receptor in CHO cells by inhibition of forskolin-stimulated cAMP synthesis
Sequence (P50391 whole entry): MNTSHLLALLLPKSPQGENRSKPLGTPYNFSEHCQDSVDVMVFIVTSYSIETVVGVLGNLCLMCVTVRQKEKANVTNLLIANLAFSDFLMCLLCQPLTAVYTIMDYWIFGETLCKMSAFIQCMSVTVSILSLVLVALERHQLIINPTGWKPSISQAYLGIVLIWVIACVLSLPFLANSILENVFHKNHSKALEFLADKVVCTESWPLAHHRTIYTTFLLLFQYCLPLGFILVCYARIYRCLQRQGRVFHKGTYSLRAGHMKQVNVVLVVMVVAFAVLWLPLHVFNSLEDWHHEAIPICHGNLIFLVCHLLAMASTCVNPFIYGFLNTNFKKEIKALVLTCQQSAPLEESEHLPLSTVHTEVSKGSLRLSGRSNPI
Parameter: EC50 (nM)
Provide the reading as a plain figure in nM.

Compound	EC50 [nM]
CCC[C@H](NC(=O)[C@H](CCCN=C(N)N)NC(=O)[C@H](Cc1c[nH]c2ccccc12)NC(=O)[C@@H](N)CCCC[C@H](N)C(=O)N[C@@H](Cc1c[nH]c2ccccc12)C(=O)N[C@@H](CCCN=C(N)N)C(=O)N[C@@H](CCC)C(=O)N[C@@H](CCCN=C(N)N)C(=O)N[C@@H](Cc1ccc(O)cc1)C(N)=O)C(=O)N[C@@H](CCCN=C(N)N)C(=O)N[C@@H](Cc1ccc(O)cc1)C(N)=O (stereo in doubt; 4A)	430
CCC[C@H](NC(=O)[C@H](CCCN=C(N)N)NC(=O)[C@H](Cc1c[nH]c2ccccc12)NC(=O)[C@@H](N)CCC[C@H](N)C(=O)N[C@@H](Cc1c[nH]c2ccccc12)C(=O)N[C@@H](CCCN=C(N)N)C(=O)N[C@@H](CCC)C(=O)N[C@@H](CCCN=C(N)N)C(=O)N[C@@H](Cc1ccc(O)cc1)C(N)=O)C(=O)N[C@@H](CCCN=C(N)N)C(=O)N[C@@H](Cc1ccc(O)cc1)C(N)=O (stereo in doubt; 2A)	200

Here is the next item to consider.
Give Neuropeptide Y receptor type 4 (Homo sapiens, UniProt P50391) EC50 for `CC(C)C[C@H](NC(=O)[C@H](CCCN=C(N)N)NC(=O)[C@H](Cc1ccc(O)cc1)NC(=O)[C@@H](N)CCCC[C@H](N)C(=O)N[C@@H](Cc1ccc(O)cc1)C(=O)N[C@@H](CCCN=C(N)N)C(=O)N[C@@H](CC(C)C)C(=O)N[C@@H](CCCN=C(N)N)C(=O)N[C@@H](Cc1ccc(O)cc1)C(N)=O)C(=O)N[C@@H](CCCN=C(N)N)C(=O)N[C@@H](Cc1ccc(O)cc1)C(N)=O`
14.8

====

organism: Homo sapiens; assay: Selectivity for human NPY4 over NPY2 receptor
Positions of bridges follow the written chain, without caps; N, C: chain ends. Non-standard residues stand in square brackets, D forms with d. Residues, ends and D or L forms follow the SMILES beside them. Chains are numbered I, II in the order given. Nva = CCC[C@H](N)C(=O)O
Parameter: Selectivity ratio
Answer with the value's number alone.

Below, each entry is followed by its recorded Selectivity ratio result.
Compound	Selectivity ratio
CCC[C@H](NC(=O)[C@H](CCCN=C(N)N)NC(=O)[C@H](Cc1c[nH]c2ccccc12)NC(=O)[C@H](Cc1ccc(O)cc1)NC(=O)[C@H](CCCN=C(N)N)NC(=O)[C@H](CCC)NC(=O)[C@H](CCCN=C(N)N)NC(=O)[C@@H](N)Cc1c[nH]c2ccccc12)C(=O)N[C@@H](CCCN=C(N)N)C(=O)N[C@@H](Cc1ccc(O)cc1)C(N)=O (H-WR[Nva]RYWR[Nva]RY-NH2)	200
CCC[C@H](NC(=O)[C@H](CCCN=C(N)N)NC(=O)[C@H](Cc1c[nH]c2ccccc12)NC(=O)[C@@H](N)CSSC[C@H](N)C(=O)N[C@@H](Cc1c[nH]c2ccccc12)C(=O)N[C@@H](CCCN=C(N)N)C(=O)N[C@@H](CCC)C(=O)N[C@@H](CCCN=C(N)N)C(=O)N[C@@H](Cc1ccc(O)cc1)C(N)=O)C(=O)N[C@@H](CCCN=C(N)N)C(=O)N[C@@H](Cc1ccc(O)cc1)C(N)=O (I: H-CWR[Nva]RY-NH2 / II: H-CWR[Nva]RY-NH2; disulfide I:1-II:1)	110

Can you share its Selectivity ratio? I mean this compound: CCC[C@H](NC(=O)[C@H](CCCN=C(N)N)NC(=O)[C@H](Cc1c[nH]c2ccccc12)NC(=O)[C@@H](N)CCC[C@H](N)C(=O)N[C@@H](Cc1c[nH]c2ccccc12)C(=O)N[C@@H](CCCN=C(N)N)C(=O)N[C@@H](CCC)C(=O)N[C@@H](CCCN=C(N)N)C(=O)N[C@@H](Cc1ccc(O)cc1)C(N)=O)C(=O)N[C@@H](CCCN=C(N)N)C(=O)N[C@@H](Cc1ccc(O)cc1)C(N)=O (stereo in doubt; 2B)
60
